- TEST METHOD NOTES: chemical genetic growth profiling, strain panel (AID 1159580);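 note: tested at 20 µM; growth read once vehicle control cultures reached saturation at 30 °C; 1 = growth at the plate median or of vehicle wells; lower values mean less growth of the strain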
- CONDITION NOTES: S. cerevisiae deletion strains, growth OD, locus YDL101C, strain DUN1, hits give low values
The campaign covered roughly 5,500 compounds. About 2,000 (36%) were called active. Another 18% or so got no clear call; they are omitted. This is one part of the list.
ATTRIBUTE MEASURED: normalized growth
Give only the figure.

Field: example entries. Status: answers known.
CC(=O)NCCc1c[nH]c2ccc(O)cc12: 0.977
NC(N)=NC(N)=Nc1ccccc1C(F)(F)F: 0.969
S=C1NC2(CCCCC2)NN1c1ccccc1: 0.92
O=[N+]([O-])c1ccsc1Oc1cccc(C(F)(F)F)c1: 0.958
O=C(O)C1CCCNC1 (stereo unspecified): 1.01

Tell me the measured normalized growth of `COc1cc(OC)c2c(=O)cc(-c3ccccc3)oc2c1` , please.
0.925

Tell me the measured normalized growth of O=C1c2ccccc2C2(c3ccccc3)NCCN12 (stereo unspecified) , please.
0.982

Tell me the measured normalized growth of `CCCNC(=O)NS(=O)(=O)c1ccc(Cl)cc1` , please.
1.03

Tell me the measured normalized growth of `COc1ccc(-c2cc(=O)c3c(OC)cc(OC)cc3o2)cc1` , please.
0.988

Tell me the measured normalized growth of `CNC(=O)Sc1c(-c2ccc(Cl)cc2)nn(C(=O)NC)c1SC` , please.
0.958

Tell me the measured normalized growth of NCC[C@@H](O)C(=O)N[C@@H]1C[C@H](N)[C@@H](O[C@H]2O[C@H](CN)[C@@H](O)[C@H](O)[C@H]2O)[C@H](O)[C@H]1O[C@H]1O[C@H](CO)[C@@H](O)[C@H](N)C1O (stereo partly specified) , please.
0.999

----------
- TEST METHOD NOTES: chemical genetic growth profiling, strain panel (AID 1159580);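 note: tested at 20 µM; growth read once vehicle control cultures reached saturation at 30 °C; 1 = growth at the plate median or of vehicle wells; lower values mean less growth of the strain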
- CONDITION NOTES: S. cerevisiae deletion strains, growth OD, locus YCL029C, strain bik1, hits give low values
Screen size: about 5,500 compounds; about 2,000 (36%) were called active. Another 18% or so got no clear call; they are omitted. The list shows a part of the results.
ATTRIBUTE MEASURED: normalized growth
Give only the figure.

O=C(O)CCCCCCCC(=O)O: 0.969
Cc1cc(/C=C/c2ccc3cc(N(C)C)ccc3[n+]2C)c(C)n1-c1ccccc1: 0.998
COc1c(C)c2c(c(O)c1C/C=C(\C)CCC(=O)O)C(=O)OC2: 0.723

Tell me the measured normalized growth of `FC(F)(F)c1cccc(N2CCNCC2)c1` , please.
0.996

Tell me the measured normalized growth of `Fc1ccc([C@@H]2CCNC[C@H]2COc2ccc3c(c2)OCO3)cc1` , please.
1.02

Tell me the measured normalized growth of `O=C1CCCCC/C=C/CCCCCCCCO1` , please.
1

----------
- TEST METHOD NOTES: chemical genetic growth profiling, strain panel (AID 1159580);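 note: tested at 20 µM; growth read once vehicle control cultures reached saturation at 30 °C; 1 = growth at the plate median or of vehicle wells; lower values mean less growth of the strain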
- CONDITION NOTES: S. cerevisiae deletion strains, growth OD, locus YOR290C, strain snf2, hits give low values
Out of some 5,500 compounds screened, about 2,000 (36%) were called active. About 18% were inconclusive and are not listed. Some of the results follow.
Recorded normalized growth values for a group of molecules are listed next.

Field: example entries. Status: answers known.
CC(C)=CC1C(C(=O)OCc2cccc(Oc3ccccc3)c2)C1(C)C (configuration not stated): 1.02 (inactive)
CC1[C@H](C)OC(=O)CC(O)CC(O)CC(O)CCC(O)C(O)C[C@]2(O)CC(O)C(C(=O)O)C(CC(OC3O[C@H](C)[C@@H](O)[C@H](N)[C@@H]3O)/C=C/C=C/C=C/C=C/CC/C=C/C=C/[C@H](C)[C@H]1O)O2 (some centres not stated): 1.01 (inactive)
CC1(C)N([O-])[N+](=O)C1(C)Br (configuration not stated): 0.987 (inactive)
CC(=O)Oc1c2c(c3c(c1CC=C(C)C)O[C@]14C(=C[C@@H]5CC1C(C)(C)OC4(C/C=C(\C)C(=O)O)C5=O)C3=O)OC(C)(CCC=C(C)C)C=C2 (some centres not stated): 0.989 (inactive)
CN(C/C=C/C#CC(C)(C)C)Cc1cccc2ccccc12: 0.305 (active)

Tell me the measured normalized growth of CC(=O)C1CCC2C3CCC4C[C@H](O)CCC4(C)C3C[C@H](O)C12C (some centres not stated) , please.
0.934 (inactive)

Tell me the measured normalized growth of Clc1ccc(C(Cn2ccnc2)OCc2ccsc2Cl)c(Cl)c1 (configuration not stated) , please.
0.074 (active)

Tell me the measured normalized growth of COC1C=CC23c4cc5c(cc4CN(CC2O)[C@@H]3C1)OCO5 (some centres not stated) , please.
0.976 (inactive)
